The measurements presented in this section are drawn from patent US8569484B2.

Biological target: S. aureus GyrB ATPase (Staphylococcus aureus, UniProt P0A0K8)
Sequence (P0AES4 whole entry): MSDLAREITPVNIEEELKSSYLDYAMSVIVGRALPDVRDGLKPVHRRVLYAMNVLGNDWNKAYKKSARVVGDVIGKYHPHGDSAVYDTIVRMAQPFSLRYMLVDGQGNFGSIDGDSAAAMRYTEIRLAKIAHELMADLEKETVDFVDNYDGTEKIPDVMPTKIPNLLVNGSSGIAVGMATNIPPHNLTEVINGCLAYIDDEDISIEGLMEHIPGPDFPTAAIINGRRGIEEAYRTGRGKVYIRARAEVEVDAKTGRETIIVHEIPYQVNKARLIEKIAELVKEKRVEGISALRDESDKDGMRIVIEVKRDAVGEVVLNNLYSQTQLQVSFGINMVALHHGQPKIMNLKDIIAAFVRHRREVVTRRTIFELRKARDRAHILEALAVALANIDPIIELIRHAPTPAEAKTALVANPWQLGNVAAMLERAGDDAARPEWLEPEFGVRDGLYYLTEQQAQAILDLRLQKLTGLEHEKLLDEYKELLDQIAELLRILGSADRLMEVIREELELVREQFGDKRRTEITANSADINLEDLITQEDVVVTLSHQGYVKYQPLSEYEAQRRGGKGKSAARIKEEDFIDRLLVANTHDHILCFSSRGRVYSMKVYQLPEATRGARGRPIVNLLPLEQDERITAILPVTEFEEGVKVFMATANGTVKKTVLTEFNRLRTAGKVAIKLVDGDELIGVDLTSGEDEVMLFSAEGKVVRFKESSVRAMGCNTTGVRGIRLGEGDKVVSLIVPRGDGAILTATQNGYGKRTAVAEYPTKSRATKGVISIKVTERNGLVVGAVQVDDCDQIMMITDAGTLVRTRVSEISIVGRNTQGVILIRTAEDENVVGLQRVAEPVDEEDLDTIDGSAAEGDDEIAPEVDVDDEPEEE
Sequence (P0A0K8 whole entry): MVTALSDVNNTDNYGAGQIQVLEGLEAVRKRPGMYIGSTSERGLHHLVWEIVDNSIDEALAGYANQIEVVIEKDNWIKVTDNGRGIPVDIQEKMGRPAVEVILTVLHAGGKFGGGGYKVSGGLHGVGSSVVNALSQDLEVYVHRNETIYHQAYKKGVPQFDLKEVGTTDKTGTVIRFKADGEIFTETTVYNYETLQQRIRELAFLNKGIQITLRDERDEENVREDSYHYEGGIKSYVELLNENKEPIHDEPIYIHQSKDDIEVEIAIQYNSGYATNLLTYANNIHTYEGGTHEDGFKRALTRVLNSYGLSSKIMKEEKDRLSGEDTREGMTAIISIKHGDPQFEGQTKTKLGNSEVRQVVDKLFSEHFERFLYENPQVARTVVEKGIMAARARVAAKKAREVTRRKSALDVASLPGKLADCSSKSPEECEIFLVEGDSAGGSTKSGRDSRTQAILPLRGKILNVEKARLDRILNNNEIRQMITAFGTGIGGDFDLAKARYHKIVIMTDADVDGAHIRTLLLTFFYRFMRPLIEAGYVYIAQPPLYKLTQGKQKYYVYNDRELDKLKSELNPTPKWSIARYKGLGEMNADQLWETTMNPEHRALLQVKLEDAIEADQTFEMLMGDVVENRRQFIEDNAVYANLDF
Assay: S. aureus GyrB ATPase inhibition (ammonium molybdate/malachite green phosphate detection)
Type: biochemical
Conditions: 1 μM compound; S. aureus GyrB ATPase; read-out: Percent Inhibition (1 μM)
Property: inhibition at 1 µM (%)
Answers are plain numbers, in %.

For the 3 compounds below, give their inhibition at 1 µM values.
1. CCNC(=O)Nc1cc(-c2nc(C(F)(F)F)cs2)c(-c2cc3c(=O)c(C(=O)O)cn(Cc4cn(C)cn4)c3cn2)cn1 [Example 50]
2. CCNC(=O)Nc1cc(-c2nc(C(F)(F)F)cs2)c(-c2cc3c(=O)c(C(=O)O)cn(CC)c3cn2)cn1 [Example 68]
3. CCNC(=O)Nc1cc(-c2nc(C(F)(F)F)cs2)c(-c2cnc3c(c2)c(=O)c(C(=O)O)cn3C[C@H]2CCCN2CC)cn1 [Example 33]

Solution:
1: 99; 2: 110; 3: 102
